Where do these numbers come from? They come from PubChem BioAssay (NCI).

# System: HCT-116 colon
# run_description: NCI tumour cell line growth inhibition, 48 h
metric_name: TGI

* CCOc1ccc(N2C(=O)/C(=C/c3ccc(N(CCC#N)CCC#N)cc3)N=C2c2cc([N+](=O)[O-])ccc2Cl)cc1 | 39.5 µM

HCT-116 colon data for CC(NNC(=O)CC(=O)N(C(=O)c1ccccc1)c1ccc(Cl)cc1)c1cc2ccccc2oc1=O (stereo unspecified) ; its TGI: > 10 µM

Measured on HCT-116 colon, Cc1ccc(NC(=O)C2C(=O)N(c3ccc(C)c(C)c3)C(=O)C2N=N)cc1C (stereo unspecified) has a documented TGI of > 100 µM

Considering COc1ccc2oc(-c3cccnc3)cc(=O)c2c1 , its TGI with HCT-116 colon was recorded as > 100 µM

TGI of COc1cccc2c1C(=O)c1c(O)c3c(c(O)c1C2=O)C[C@@](O)(C(=O)CO)C[C@@H]3OC1CC(N)C(OC)C(C)O1 (stereo partly specified) , assay on HCT-116 colon, is > 100 µM

Bench note, HCT-116 colon: Cc1nc2cnc(N)c(C#Cc3cncc(C(=O)Nc4ccc(CN5CCN(C)CC5)c(C(F)(F)F)c4)c3)c2nc1C , TGI reads 1.57 µM

Result for Cc1[nH]c2ccccc2c1-c1cc(-c2cc(-c3c(C)[nH]c4ccccc34)on2)no1 , tested on HCT-116 colon, TGI: > 100 µM

Form: item Ic1ccc(-n2nnnc2-c2cnoc2-c2ccccc2)cc1 ; test system HCT-116 colon; TGI: > 70 µM

Form: item COc1ccc(-c2oc(=O)ccc2-c2cc(OC)c(OC)c(OC)c2)cc1F ; test system HCT-116 colon; TGI: > 100 µM

GET /values?item= O=C1NN=C2C=C(c3ccc(Cl)cc3)CC(c3cccc(Cl)c3)C12 (stereo unspecified) &system= HCT-116 colon returns TGI: 41 µM
